The reported measurements were obtained from the supplement of paper PMC10567573.

B1: WDFY1 (parent)
chain: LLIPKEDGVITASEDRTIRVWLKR

- Variants of: B1
- PROTOCOL_DESCRIPTION: protein stability index of a GFP-peptide fusion (GPS, HEK-293T) (PSI 1-6); higher = more stable;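 note: lentivirally expressed fusions sorted by FACS into six bins by GFP to DsRed ratio, PSI derived from sequencing read proportions per bin multiplied by bin number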
- EXPERIMENTAL_CONTEXT: c terminus: a fixed tail appended
RECORDED_METRIC: protein stability index

- ORDERED_RESIDUES: "LLIPKEDGVITASEDRPIRVWLKR [T17P]"
  OBSERVED: 2.51
- ORDERED_RESIDUES: "LLIPKEDGVITASEDRTIRVWTKR [L22T]"
  OBSERVED: 2.54
- ORDERED_RESIDUES: "LLIQKEDGVITASEDRTIRVWLKR [P4Q]"
  OBSERVED: 1.5
- ORDERED_RESIDUES: "LLIPKEDGVITASEDRTCRVWLKR [I18C]"
  OBSERVED: 2.07
- ORDERED_RESIDUES: "LLIPKEDGVITASEDRTIRVALKR [W21A]"
  OBSERVED: 3.07
- ORDERED_RESIDUES: "LLIMKEDGVITASEDRTIRVWLKR [P4M]"
  OBSERVED: 1.88
- ORDERED_RESIDUES: "LLIPKEDFVITASEDRTIRVWLKR [G8F]"
  OBSERVED: 1.48
- ORDERED_RESIDUES: "PLIPKEDGVITASEDRTIRVWLKR [L1P]"
  OBSERVED: 4.03
- ORDERED_RESIDUES: "LLIPLEDGVITASEDRTIRVWLKR [K5L]"
  OBSERVED: 1.36
- ORDERED_RESIDUES: "LLIPKEDVVITASEDRTIRVWLKR [G8V]"
  OBSERVED: 1.58
- ORDERED_RESIDUES: "LLIPKEDGVITASEDREIRVWLKR [T17E]"
  OBSERVED: 1.81
- ORDERED_RESIDUES: "LLIPKEDGVITASEDRTIRVWVKR [L22V]"
  OBSERVED: 2.17
- ORDERED_RESIDUES: "LLIPKEDGVITISEDRTIRVWLKR [A12I]"
  OBSERVED: 1.92
- ORDERED_RESIDUES: "LLCPKEDGVITASEDRTIRVWLKR [I3C]"
  OBSERVED: 2.24
- ORDERED_RESIDUES: "LLIPKEDGVITASADRTIRVWLKR [E14A]"
  OBSERVED: 1.71
- ORDERED_RESIDUES: "LLIPKEDGVITAKEDRTIRVWLKR [S13K]"
  OBSERVED: 2.06
- ORDERED_RESIDUES: "LLEPKEDGVITASEDRTIRVWLKR [I3E]"
  OBSERVED: 3.36
- ORDERED_RESIDUES: "LLIPKEHGVITASEDRTIRVWLKR [D7H]"
  OBSERVED: 1.42
- ORDERED_RESIDUES: "LFIPKEDGVITASEDRTIRVWLKR [L2F]"
  OBSERVED: 1.25
- ORDERED_RESIDUES: "LLIPKEDGVHTASEDRTIRVWLKR [I10H]"
  OBSERVED: 1.94
- ORDERED_RESIDUES: "LLIPKEDGVITASEDRTIRVWLWR [K23W]"
  OBSERVED: 2.13
- ORDERED_RESIDUES: "LLIPKEDGVITASEDRTGRVWLKR [I18G]"
  OBSERVED: 2.93
